All values here come from patent US11850213B2.

- experimental.protocol: PK study, retina exposure after 0.25% rifampicin eye drop, LC/MS
- Type: in vivo, Sprague-Dawley rats
- condition: male, Sprague-Dawley, topical, 37.5 micro gram, rat, 0.25% eye drop 15 microL (Example 1A), 3 hr, n = 4
measured.quantity: concentration at 3 hr (ng/g)

smiles.representation	numeric.result
CO[C@H]1/C=C/O[C@@]2(C)Oc3c(C)c(O)c4c(O)c(c(/C=N/N5CCN(C)CC5)c(O)c4c3C2=O)NC(=O)/C(C)=C\C=C\[C@H](C)[C@H](O)[C@@H](C)[C@@H](O)[C@@H](C)[C@H](OC(C)=O)[C@@H]1C	1150

----------
- experimental.protocol: PK study, retina exposure after 0.25% rifampicin eye drop, LC/MS
- Type: in vivo, Sprague-Dawley rats
- condition: male, Sprague-Dawley, topical, 37.5 micro gram, rat, 0.25% eye drop 15 microL (Example 1A), 7 hr, n = 4

smiles.representation	concentration at 7 hr
CO[C@H]1/C=C/O[C@@]2(C)Oc3c(C)c(O)c4c(O)c(c(/C=N/N5CCN(C)CC5)c(O)c4c3C2=O)NC(=O)/C(C)=C\C=C\[C@H](C)[C@H](O)[C@@H](C)[C@@H](O)[C@@H](C)[C@H](OC(C)=O)[C@@H]1C	104 ng/g
